# TEST METHOD NOTES: Log P by HPLC on reversed phase columns, method [a] (EEC directive 79/831 Annex V.A8)
# Format: physicochemical
# ASSAY CONDITIONS: reversed phase HPLC column; Method A: LC-UV, acidic range, 0.1% formic acid in water and acetonitrile; read-out: Log P
ASSAY METRIC: chromatographic logP

O=C(NNC(=O)C(F)F)c1cnc(NC2(c3ccccc3)CCC2)nc1 1.99
CCOC(=O)c1cnc(NC2(c3ccccc3)CCC2)nc1 3.53
FC(F)c1nnc(-c2cnc(NC3(c4ccccc4)CCC3)nc2)o1 3.18
O=C(O)c1ccc(-c2nnc(C(F)(F)F)s2)cc1 1.41
CCc1noc(-c2ccc(C(=O)NNC(=O)C(F)(F)F)cc2)n1 1.93

P. NNC(=O)c1cnc(NC2(c3ccccc3)CCC2)nc1
Q. CCc1noc(-c2ccc(-c3nnc(C(F)(F)F)o3)cc2)n1
Query :: Between P and Q , whose measured chromatographic logP reads higher? Output the label that corresponds to your choice.
Result :: Q
(Q: 3.59, P: 1.63)

* * *

# TEST METHOD NOTES: Log P by HPLC on reversed phase columns, method [a] (EEC directive 79/831 Annex V.A8)
# Assay type: physicochemical
# ASSAY CONDITIONS: reversed phase HPLC column; log P determined according to method [a] (HPLC on reversed phase columns); read-out: logP
ASSAY METRIC: chromatographic logP

Please review the entries below; each comes with its answer.
COMPOUND	QUANTITATIVE RESULT
COc1ccc(C2(Nc3ncc(-c4nnc(C(F)F)o4)cn3)CC2)cc1	2.62
FC(F)c1nnc(-c2cnc(-c3ccc(Cl)cc3)nc2)o1	3.6
FC(F)c1nnc(-c2cnc(NC(c3ccccc3)C3CC3)nc2)o1 (racemic)	3.14
FC(F)c1nnc(-c2cnc(-c3ccnc(Cl)c3)nc2)o1	2.59
C#CC(Nc1ncc(-c2nnc(C(F)F)o2)cn1)c1ccccc1 (racemic)	2.86

I. COc1ccccc1Nc1ncc(-c2nnc(C(F)F)o2)cn1
II. FC(F)c1nnc(-c2cnc(OC3(c4ccccn4)COC3)nc2)o1
Query :: Please indicate which entry, I or II , has the lower recorded chromatographic logP value. // output: label of the selected item
Result :: II
(II: 1.66, I: 2.8)

* * *

# TEST METHOD NOTES: Log P by HPLC on reversed phase columns, method [a] (EEC directive 79/831 Annex V.A8)
# Type: physicochemical
# ASSAY CONDITIONS: reversed phase HPLC column; log P determined according to method [a] (HPLC on reversed phase columns); read-out: logP
ASSAY METRIC: chromatographic logP

COMPOUND	QUANTITATIVE RESULT
Fc1ccc(CNc2ncc(-c3nnc(C(F)F)o3)cn2)cc1	2.64
Fc1ccc(C2(Nc3ncc(-c4nnc(C(F)F)o4)cn3)CC2)cc1	2.75
Cc1ccccc1C1(Nc2ncc(-c3nnc(C(F)F)o3)cn2)CC1	3.23

I. CC(Nc1ncc(-c2nnc(C(F)F)o2)cn1)c1c(F)cccc1F (racemic)
II. FC(F)c1nnc(-c2cnc(NCC3CCOCC3)nc2)o1
Query :: Which has the higher chromatographic logP, I or II ? Write down the label of the entry you select.
Result :: I
(I: 3.1, II: 1.73)

I. FC(F)c1nnc(-c2cnc(N3Cc4ccccc4C3)nc2)o1
II. FC(F)c1nnc(-c2cnc(NC3(c4ccccn4)CCC3)nc2)o1
Query :: Which of the two items, I and II , has the greater recorded chromatographic logP? Write down the label of the entry you select.
Result :: I

Where do these numbers come from? They come from patent US20220144815A1.
